# assay comment: inhibitors of TNFa-induced NFkB p65 translocation, primary screen, imaging, HUVEC, MLSMR starter and 10KST1 sets (AID 438);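 note: compound added about 3h40 before a 20 min TNFalpha stimulation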
# experimental conditions: HUVEC TNFa-induced p65 nuclear translocation; measured here: nuclei count (cytotoxicity indicator), at 2.08 µM
Please go through the items and note down their cell count.
Give bare numbers.

Check out these entries, answers already filled in.
# molecule, cell count
rows = [
    ("Cc1cc(=O)n2nc(N3CCCC(C(=O)N4CCN(C)CC4)C3)sc2n1 (stereo unspecified)", 465),
    ("COc1ccc(NC(=O)C2CCCN2S(=O)(=O)c2cccc3cccnc23)c(OC)c1 (stereo unspecified)", 645),
    ("COc1ccc(CNCC(=O)Nc2cc(C)nn2-c2nc(C)cc(C)n2)cc1OC", 431),
]

Give cell count for each of the items listed below.
1. O=C(CSc1nnc(-c2ccco2)n1-c1ccccc1)N1CCN(C(=O)c2ccco2)CC1
2. CCCCn1nc(C(=O)N2CCc3ccccc32)c2ccccc2c1=O
3. O=C(CSc1ncc(-c2ccc(F)cc2)[nH]1)N1CCCCC1

Marked response:
537
423
425

* * *

Please go through the items and note down their slope.
# measurement target: Alpha-2C adrenergic receptor (Homo sapiens)
# assay comment: compounds altering alpha2C-coupled GIRK flux – cell-based, HEK293 alpha2C/GIRK1/2, thallium flux, primary screen (AID 624);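 note: slope of fluorescence ratio to pre-addition baseline per second over 15 to 24 s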
# experimental conditions: thallium flux BTC fluorescence, at 10 µM, actives lie on both sides
The source made the active and inactive calls.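 Rule for the calls: active = fluorescence slope after compound addition differing from the mean of all screened samples at 99.7% confidence, in either direction; inactive = the rest.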

Check out these entries, answers already filled in.
# chemical smiles, reading
records = [
    ("CCOC(=O)c1cnn(-c2cc(C)nc3c(-c4ccccc4)c(C)nn23)c1N", "0.00566 (inactive)"),
    ("CCn1c(=S)ccc2ccc(OC)cc21", "0.0055 (inactive)"),
]

Give slope for each of the items listed below.
1. S=C(c1cccs1)N1CCCC1
2. CCn1c(SCC(=O)Nc2ccc(Cl)cc2)nnc1C1CC1
3. CCC(=O)N(CCCN(C)C)c1nc(-c2cc(OC)ccc2OC)cs1

Marked response:
1. 0.00656 (inactive)
2. 0.00675 (inactive)
3. 0.00293 (inactive)

In plain terms, N#Cc1ccccc1Cn1c(=O)n(Cc2ccc(C(=O)NCc3ccco3)cc2)c(=O)c2ccccc21 has a documented slope of 0.00719 (inactive)

* * *

# assay comment: reduction of polyQ htt aggregates in cells – imaging, exon1htt(103Q)mCFP cells, high-content imaging, primary screen (AID 483);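 note: compound exposure lasted 3 days before fixation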
# experimental conditions: exon1htt(103Q)mCFP cell line, aggregate imaging, at 2 µM; stronger effect = higher value
Calls of active or inactive are those of the source.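 Rule for the calls: active = visual image review flags a hit and inhibition of aggregation exceeds 20%; inconclusive = visual hit but inhibition at or below 20%; inactive = no hit on visual image review.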
Please go through the items and note down their inhibition of aggregation.

Check out these entries, answers already filled in.
# compound, inhibition of aggregation
data = [
    ("CCN(CC(=O)Nc1c(C(=O)OC)[nH]c2ccccc12)c1ccc2c(c1)OCO2", "-25.6% (inactive)"),
    ("CCCOC(=O)c1[nH]c2c(c1C)C(=O)CC(c1ccc(OC)c(OC)c1)C2 (stereo not drawn)", "2.4% (inactive)"),
]

In plain terms, Cc1cc(C)cc(NC(=O)CCNS(=O)(=O)c2ccc3c(c2)oc(=O)n3C)c1 has a documented inhibition of aggregation of -14.6% (inactive)

* * *

# assay comment: inhibitors of TNFa-induced NFkB p65 translocation, primary screen, imaging, HUVEC, MLSMR starter and 10KST1 sets (AID 438);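 note: compound added about 3h40 before a 20 min TNFalpha stimulation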
# experimental conditions: HUVEC TNFa-induced p65 nuclear translocation; measured here: nuclei count (cytotoxicity indicator), at 2.08 µM
Please go through the items and note down their cell count.

Check out these entries, answers already filled in.
# compound, cell count
records = [
    ("Cc1cccc(-n2nc3c(c2NC(=O)CCC2CCCCC2)CS(=O)C3)c1C (centres undefined)", 637),
    ("O=[n+]1cc(-c2ccc(F)cc2)n([O-])c2c1CCC2", 391),
    ("COc1ccc(OC)c(CNC(=O)COc2cc(=O)n(C)c3ccccc23)c1", 367),
    ("CCN1CCN(Cc2nc3c(c(=O)[nH]c(=O)n3C)n2Cc2ccccc2Cl)CC1", 584),
    ("CCOC(=O)Cc1nnc(NC(=O)c2ccccc2OCC)s1", 583),
]

Give cell count for each of the items listed below.
1. COc1ccc(Cl)cc1-c1n[nH]c(=S)o1
2. CCn1cc(C(=O)NC2CCc3ccccc32)c(=O)c2ccc(C)nc21 (centres undefined)
3. O=C(O)c1cccc(NS(=O)(=O)c2ccc3nnn(O)c3c2)c1
4. CC12COC3(C(=O)Nc4ccc(Cl)cn4)CC1CCC32C (centres undefined)
5. Cn1c(-c2cc(Br)ccc2O)n[nH]c1=S
6. CC1CCN(Cc2ccc(NC(=O)C3CCN(c4nnc(-n5cccc5)s4)CC3)cc2)CC1
7. O=C(CCn1c(=O)oc2ccccc21)NCc1ccco1
8. CCOc1cc(C(=O)N(C)Cc2cc3cc(OC)ccc3[nH]c2=O)cc(OCC)c1OCC

Marked response:
[546, 727, 435, 773, 440, 720, 686, 394]
